Tgt: Histone deacetylase
Method description: Inhibitory activity against histone deacetylase (HDAC) enzyme obtained from H1299 human lung carcinoma cell lysates
Provide the reported IC50 of each item.
One number for each entry, in nM.

A selection of reference data follows.
| Compound | U | IC50 |
| --- | --- | --- |
| COc1ccccc1NCCNCc1ccc(/C=C/C(=O)NO)cc1 | nM | 111 |
| O=C(/C=C/c1ccc(CNCCc2cnc3ccccc3c2)cc1)NO | nM | 67 |
| O=C(/C=C/c1ccc(CNCCCc2c[nH]c3ccccc23)cc1)NO | nM | 53 |
| O=C(/C=C/c1ccc(CNCCCn2c3ccccc3c3ccccc32)cc1)NO | nM | 79 |
| O=C(/C=C/c1ccc(CNCc2cc3ccccc3[nH]2)cc1)NO | nM | 51 |

Look up IC50 for the entries below, preserving their order.
1. O=C(/C=C/c1ccc(CNCCCCc2c[nH]c3ccccc23)cc1)NO
2. O=C(/C=C/c1ccc(CN(CCc2c[nH]c3ccccc23)C2CCCCC2)cc1)NO
3. Cn1cc(CCNCc2ccc(/C=C/C(=O)NO)cc2)c2ccccc21
4. O=C(/C=C/c1ccc(CNCCc2cn(CC3CC3)c3ccccc23)cc1)NO
5. O=C(/C=C/c1ccc(CN(CCCc2ccccc2)Cc2cccnc2)cc1)NO
6. O=C(/C=C/c1ccc(NCCCc2c[nH]c3ccccc23)cc1)NO

// result
37
20
23
84
164
262
